B1: 1ZHC (parent)
chain: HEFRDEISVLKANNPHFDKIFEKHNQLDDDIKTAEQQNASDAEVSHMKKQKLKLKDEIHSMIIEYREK

# Variants of: B1
# EXPERIMENT_DESCRIPTION: folding stability dG (cDNA display proteolysis); higher = more stable
# REPORTED_CONDITIONS: PBS, room temperature
Records here are stratified by folding stability dG; strata: band A = under 0.4 kcal/mol, band B = from 0.4 kcal/mol up to 1 kcal/mol, band C = 1 kcal/mol and over

[
  {
    "MUTANT_DESIGNATION": "N13Q",
    "LABEL_CLASS": "band C"
  },
  {
    "MUTANT_DESIGNATION": "E43W",
    "LABEL_CLASS": "band C"
  },
  {
    "MUTANT_DESIGNATION": "D18R",
    "LABEL_CLASS": "band C"
  },
  {
    "MUTANT_DESIGNATION": "H24V",
    "LABEL_CLASS": "band B"
  },
  {
    "MUTANT_DESIGNATION": "K11V",
    "LABEL_CLASS": "band A"
  },
  {
    "MUTANT_DESIGNATION": "F3P",
    "LABEL_CLASS": "band A"
  },
  {
    "MUTANT_DESIGNATION": "L52Y",
    "LABEL_CLASS": "band A"
  },
  {
    "MUTANT_DESIGNATION": "S60F",
    "LABEL_CLASS": "band B"
  },
  {
    "MUTANT_DESIGNATION": "R4V",
    "LABEL_CLASS": "band B"
  },
  {
    "MUTANT_DESIGNATION": "K68E",
    "LABEL_CLASS": "band A"
  },
  {
    "MUTANT_DESIGNATION": "H1I",
    "LABEL_CLASS": "band B"
  },
  {
    "MUTANT_DESIGNATION": "R66I",
    "LABEL_CLASS": "band B"
  },
  {
    "MUTANT_DESIGNATION": "Q37A",
    "LABEL_CLASS": "band C"
  },
  {
    "MUTANT_DESIGNATION": "Q50W",
    "LABEL_CLASS": "band B"
  },
  {
    "MUTANT_DESIGNATION": "Q26T",
    "LABEL_CLASS": "band A"
  },
  {
    "MUTANT_DESIGNATION": "L10S",
    "LABEL_CLASS": "band A"
  },
  {
    "MUTANT_DESIGNATION": "E43R",
    "LABEL_CLASS": "band C"
  },
  {
    "MUTANT_DESIGNATION": "S40Q",
    "LABEL_CLASS": "band A"
  },
  {
    "MUTANT_DESIGNATION": "K11A",
    "LABEL_CLASS": "band A"
  },
  {
    "MUTANT_DESIGNATION": "S8D",
    "LABEL_CLASS": "band B"
  },
  {
    "MUTANT_DESIGNATION": "K53L",
    "LABEL_CLASS": "band C"
  },
  {
    "MUTANT_DESIGNATION": "K49C",
    "LABEL_CLASS": "band C"
  },
  {
    "MUTANT_DESIGNATION": "K51W",
    "LABEL_CLASS": "band C"
  },
  {
    "MUTANT_DESIGNATION": "Y65C",
    "LABEL_CLASS": "band A"
  },
  {
    "MUTANT_DESIGNATION": "S40Y",
    "LABEL_CLASS": "band A"
  },
  {
    "MUTANT_DESIGNATION": "D29M",
    "LABEL_CLASS": "band C"
  },
  {
    "MUTANT_DESIGNATION": "E67C",
    "LABEL_CLASS": "band C"
  },
  {
    "MUTANT_DESIGNATION": "K49F",
    "LABEL_CLASS": "band B"
  },
  {
    "MUTANT_DESIGNATION": "D18H",
    "LABEL_CLASS": "band C"
  },
  {
    "MUTANT_DESIGNATION": "K53I",
    "LABEL_CLASS": "band B"
  },
  {
    "MUTANT_DESIGNATION": "P15S",
    "LABEL_CLASS": "band B"
  },
  {
    "MUTANT_DESIGNATION": "I20A",
    "LABEL_CLASS": "band A"
  },
  {
    "MUTANT_DESIGNATION": "R66H",
    "LABEL_CLASS": "band C"
  },
  {
    "MUTANT_DESIGNATION": "Q36F",
    "LABEL_CLASS": "band B"
  },
  {
    "MUTANT_DESIGNATION": "K51N",
    "LABEL_CLASS": "band A"
  },
  {
    "MUTANT_DESIGNATION": "K32W",
    "LABEL_CLASS": "band A"
  },
  {
    "MUTANT_DESIGNATION": "H1Q",
    "LABEL_CLASS": "band B"
  },
  {
    "MUTANT_DESIGNATION": "S8T",
    "LABEL_CLASS": "band C"
  },
  {
    "MUTANT_DESIGNATION": "H1F",
    "LABEL_CLASS": "band C"
  },
  {
    "MUTANT_DESIGNATION": "K49L",
    "LABEL_CLASS": "band B"
  },
  {
    "MUTANT_DESIGNATION": "D29V",
    "LABEL_CLASS": "band C"
  }
]
